- MEASURED_TARGET: T1, HLA-B08:01 (human)
- T1 construct: Stability assay: E. coli-expressed biotinylated heavy chain with 125I-labelled b2m; MS: BAP-tagged HLA in HEK293T cells; Treated as one molecule
- PROTOCOL: competition vs radiolabeled peptide on purified HLA; measured IC50
pIC50: −log10 of the molar value.
READOUT_LABEL: pIC50

Example results:
IMKPKRDGYM = 7.40
ESKIMFATL = 7.63

I = LHFCRSSIM
II = FLKAESKIMF
III = FATLQRSSL
Endpoint returns the given binders ordered by ascending pIC50. // list labels; follow requested order I, II, III
(I: 6.78, II: 7.05, III: 7.56)
